tested.system: human P2X3 receptor (Homo sapiens (Human))
Sequence (P56373 whole entry): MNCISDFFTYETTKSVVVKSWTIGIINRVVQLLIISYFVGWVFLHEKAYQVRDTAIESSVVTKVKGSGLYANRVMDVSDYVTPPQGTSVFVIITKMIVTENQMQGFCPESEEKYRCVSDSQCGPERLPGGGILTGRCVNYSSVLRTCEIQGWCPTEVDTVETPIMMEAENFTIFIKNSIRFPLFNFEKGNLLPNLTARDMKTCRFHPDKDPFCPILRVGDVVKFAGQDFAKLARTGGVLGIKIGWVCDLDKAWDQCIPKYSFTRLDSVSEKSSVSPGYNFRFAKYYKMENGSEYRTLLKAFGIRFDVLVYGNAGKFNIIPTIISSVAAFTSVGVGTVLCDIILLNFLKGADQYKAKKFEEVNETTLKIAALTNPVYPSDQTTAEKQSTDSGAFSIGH
protocol.summary: Evaluation of human P2X3 receptor inhibitory activity (Test Example 1)
condition.info: C6BU-1 cell transfected with human P2X3 receptor gene, FLIPR 384
pIC50: −log10 of the molar value.
Classification field: enter t for pIC50 values not below 8, f for values below it.

Determine whether this compound has pIC50 no lower than 8: COC(=O)[C@@H](C)Cn1c(=O)[nH]/c(=N\c2ccc(Oc3ncccn3)cc2)n(Cc2ccc(Cl)cc2)c1=O
t

Hi, just wondering whether COC(=O)[C@@H](C)Cn1c(=O)[nH]/c(=N\c2ccc(N3CCOCC3)c(C)c2)n(Cc2ccc(Cl)cc2)c1=O shows pIC50 of 8 or higher.
f
